These entries and their values trace back to paper PMC6481345.

tested on: YUSOC melanoma cells; experiment: CellTiter-Glo Luminescent Cell Viability Assay; format: cell-based, human; details: RAF1 T491I, NF1 null/RAC1 P29S, 72 hrs
assay-metric: pIC50
Answers are plain numbers, as −log10 of the molar value.

Prompt line: # pIC50 lookup, item Nc1ncnc2c1c(-c1ccc(Oc3ccccc3)cc1)nn2C[C@@H]1SSC[C@@H]1O
Response line: 6.80

---

system: YUCRATE melanoma cells; test: CellTiter-Glo Luminescent Cell Viability Assay; format: cell-based; conditions: Homo sapiens, BRAF G469A, 72 hrs
assay-metric: IC50
Form field: result (number plus unit)

Prompt line: Look up IC50 with YUCRATE melanoma cells for this molecule: Nc1ncnc2c1c(-c1ccc(Oc3ccccc3)cc1)nn2C[C@@H]1SSC[C@@H]1O
Response line: 282 nM

---

System: YUTICA melanoma cells
Test: CellTiter-Glo Luminescent Cell Viability Assay
Type: cell-based
Conditions: Homo sapiens, NRAS Q61R, 72 hrs
Method: The melanoma cells were grown in OptiMEM (Invitrogen, Carlsbad, CA) supplemented with 5% fetal calf serum and antibiotics. The normal human melanocytes (NBMEL) were grown in medium supplemented with bFGF, IBMX and dbcAMP [32]. […] Cell proliferation was measured with the CellTiter-Glo® Luminescent Cell Viability Assay (Promega Corporation, Madison, WI). […] The statistical significance of synergism of response to drug combinations was evaluated by following Chou and Talalay algorithm. […]
assay-metric: pIC50
Give bare numbers, as −log10 of the molar value.

Prompt line: # pIC50 lookup, item Nc1ncnc2c1c(-c1ccc(Oc3ccccc3)cc1)nn2C[C@@H]1SSC[C@@H]1O [SAB298]
Response line: 6.12

---

molecular target: UniProt:Q13882; assay: Radioisotope filter activity assay, recombinant kinase; conditions: 10 point dose response, 10 µM ATP
Sequence (Q13882 whole entry): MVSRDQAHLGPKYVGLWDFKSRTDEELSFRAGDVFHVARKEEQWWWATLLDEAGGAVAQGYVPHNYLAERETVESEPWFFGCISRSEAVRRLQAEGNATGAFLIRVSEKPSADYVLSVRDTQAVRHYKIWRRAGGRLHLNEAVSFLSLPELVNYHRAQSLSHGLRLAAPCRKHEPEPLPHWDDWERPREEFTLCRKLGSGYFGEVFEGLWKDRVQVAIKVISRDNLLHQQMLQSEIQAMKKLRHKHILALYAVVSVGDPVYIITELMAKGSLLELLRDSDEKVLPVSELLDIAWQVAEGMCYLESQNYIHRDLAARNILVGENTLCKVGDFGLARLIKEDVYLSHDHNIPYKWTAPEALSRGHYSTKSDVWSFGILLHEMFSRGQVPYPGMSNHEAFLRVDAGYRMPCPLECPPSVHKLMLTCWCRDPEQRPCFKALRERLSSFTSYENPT
assay-metric: IC50 (nM)
Give bare numbers, in nM.

Prompt line: # IC50 lookup, item Nc1ncnc2c1c(-c1ccc(Oc3ccccc3)cc1)nn2C[C@@H]1SSC[C@@H]1O
Response line: 35.5

---

Molecular target: EGFR (Homo sapiens)
Construct: we tested the endogenous kinome response to SAB298; host or cells: YUSIV and YUSIK melanoma cell lysates
Sequence (P00533 25-1210): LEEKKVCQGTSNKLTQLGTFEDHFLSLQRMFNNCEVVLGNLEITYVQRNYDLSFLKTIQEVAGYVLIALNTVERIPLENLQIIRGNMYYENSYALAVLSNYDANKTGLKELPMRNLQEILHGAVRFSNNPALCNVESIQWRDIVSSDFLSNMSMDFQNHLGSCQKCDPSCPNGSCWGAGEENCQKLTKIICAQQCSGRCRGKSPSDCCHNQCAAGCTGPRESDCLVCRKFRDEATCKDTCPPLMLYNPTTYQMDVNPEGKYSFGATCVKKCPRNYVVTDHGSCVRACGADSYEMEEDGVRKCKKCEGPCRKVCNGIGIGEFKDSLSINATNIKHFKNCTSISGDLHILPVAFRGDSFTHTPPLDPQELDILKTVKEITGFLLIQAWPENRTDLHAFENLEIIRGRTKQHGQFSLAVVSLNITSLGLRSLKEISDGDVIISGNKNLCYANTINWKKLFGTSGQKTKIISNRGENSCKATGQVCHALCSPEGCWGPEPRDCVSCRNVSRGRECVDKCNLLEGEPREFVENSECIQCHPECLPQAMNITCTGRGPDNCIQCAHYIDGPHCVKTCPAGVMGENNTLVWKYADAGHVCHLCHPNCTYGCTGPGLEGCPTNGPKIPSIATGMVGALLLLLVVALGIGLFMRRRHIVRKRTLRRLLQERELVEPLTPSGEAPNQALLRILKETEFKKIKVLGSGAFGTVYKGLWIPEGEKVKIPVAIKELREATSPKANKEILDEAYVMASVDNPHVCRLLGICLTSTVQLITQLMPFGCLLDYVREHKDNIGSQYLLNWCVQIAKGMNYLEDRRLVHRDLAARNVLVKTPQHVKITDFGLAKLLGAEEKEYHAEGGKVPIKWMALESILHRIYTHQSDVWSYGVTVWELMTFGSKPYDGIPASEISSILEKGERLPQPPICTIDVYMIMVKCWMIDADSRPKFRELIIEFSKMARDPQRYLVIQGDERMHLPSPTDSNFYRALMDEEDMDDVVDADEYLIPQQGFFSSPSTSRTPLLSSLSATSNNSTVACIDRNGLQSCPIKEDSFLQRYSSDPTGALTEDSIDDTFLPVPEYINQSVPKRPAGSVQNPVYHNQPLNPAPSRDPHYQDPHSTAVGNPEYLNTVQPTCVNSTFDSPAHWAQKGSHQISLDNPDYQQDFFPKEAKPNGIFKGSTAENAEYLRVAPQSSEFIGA
Experiment: KiNativ in situ kinase profiling in melanoma cell lysates
Format: binding
Settings: EGFR in YUSIV lysate; 3-point dose response
Experimental: The effect of SAB298 on a panel of 36 recombinant kinases, was screed with the radioisotope filter binding assay employing 10 concentrations of the compound with 10 µM ATP (Reaction Biology Corporation, Malvern, PA). In addition, we tested the endogenous kinome response to SAB298 (0.05 µM, 0.5 µM and 5 µM) in lysates from two melanoma cell lines (YUSIV and YUSIK) employing the KiNativ® platform (ActivX Biosciences Inc., La Jolla, CA). […]
assay-metric: pIC50
Give bare numbers, as −log10 of the molar value.

Prompt line: Look up pIC50 with EGFR (Homo sapiens) for this compound: Nc1ncnc2c1c(-c1ccc(Oc3ccccc3)cc1)nn2C[C@@H]1SSC[C@@H]1O [SAB298]
Response line: 5.89

---

Target: LYN (Homo sapiens)
Sequence (P07948 whole entry): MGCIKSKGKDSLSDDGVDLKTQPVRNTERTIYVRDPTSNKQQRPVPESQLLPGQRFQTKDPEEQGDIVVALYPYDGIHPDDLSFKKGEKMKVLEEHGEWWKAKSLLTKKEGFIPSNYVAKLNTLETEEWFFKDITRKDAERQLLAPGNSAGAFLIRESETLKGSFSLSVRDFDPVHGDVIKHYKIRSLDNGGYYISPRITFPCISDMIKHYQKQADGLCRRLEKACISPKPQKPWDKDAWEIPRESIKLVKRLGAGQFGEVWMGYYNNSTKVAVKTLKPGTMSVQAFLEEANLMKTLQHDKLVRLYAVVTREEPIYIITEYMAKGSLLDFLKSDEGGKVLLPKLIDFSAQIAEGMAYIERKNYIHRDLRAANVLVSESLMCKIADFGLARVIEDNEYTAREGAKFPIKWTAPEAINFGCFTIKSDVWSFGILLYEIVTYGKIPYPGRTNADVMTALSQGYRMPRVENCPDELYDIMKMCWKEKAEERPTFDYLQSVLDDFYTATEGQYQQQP
Experiment: KiNativ in situ kinase profiling in melanoma cell lysates
Type: binding
Design: the endogenous kinome response to SAB298 (0.05 µM, 0.5 µM and 5 µM) in lysates from two melanoma cell lines; host or cells: YUSIV and YUSIK melanoma cell lysates
Conditions: LYN in YUSIK lysate; 3-point dose response
Procedure: The effect of SAB298 on a panel of 36 recombinant kinases, was screed with the radioisotope filter binding assay employing 10 concentrations of the compound with 10 µM ATP (Reaction Biology Corporation, Malvern, PA). In addition, we tested the endogenous kinome response to SAB298 (0.05 µM, 0.5 µM and 5 µM) in lysates from two melanoma cell lines (YUSIV and YUSIK) employing the KiNativ® platform (ActivX Biosciences Inc., La Jolla, CA). […]
assay-metric: pIC50
Numbers only, as −log10 of the molar value.

Prompt line: # pIC50 lookup, item Nc1ncnc2c1c(-c1ccc(Oc3ccccc3)cc1)nn2C[C@@H]1SSC[C@@H]1O
Response line: 6.72
